Biological target: Cytochrome P450 3A4 (Homo sapiens) (UniProt P08684)
Sequence (P08684 whole entry, looked up): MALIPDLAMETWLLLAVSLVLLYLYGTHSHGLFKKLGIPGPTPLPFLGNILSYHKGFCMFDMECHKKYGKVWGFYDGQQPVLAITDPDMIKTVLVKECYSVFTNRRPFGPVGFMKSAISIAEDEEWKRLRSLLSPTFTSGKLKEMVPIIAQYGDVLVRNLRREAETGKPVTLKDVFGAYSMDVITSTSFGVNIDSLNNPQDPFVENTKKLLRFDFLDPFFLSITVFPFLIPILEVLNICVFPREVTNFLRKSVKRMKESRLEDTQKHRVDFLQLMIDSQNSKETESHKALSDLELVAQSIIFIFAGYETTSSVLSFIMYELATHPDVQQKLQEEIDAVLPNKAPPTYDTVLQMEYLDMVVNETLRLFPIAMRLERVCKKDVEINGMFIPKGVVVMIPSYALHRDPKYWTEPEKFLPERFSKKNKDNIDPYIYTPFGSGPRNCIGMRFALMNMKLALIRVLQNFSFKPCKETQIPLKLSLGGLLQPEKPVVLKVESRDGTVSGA
Test: qHTS Assay for Activators of Cytochrome P450 3A4 (AID 885); also: nearly all actives have a fitted effect of over 65% in size
Details: recombinant CYP3A4, Luciferin-PPXE luminescence, 60 min; series mostly up to 57.1 µM
Active and inactive are the calls of the source. Calls follow the shape of the dose curve; as a rule, active = well fitted activation curve with a large enough effect; inconclusive = small, poorly fitted or top-dose-only effect; inactive = no such curve, though single readings can be large or run the other way.
endpoint.name: activity change, positive = activation

compound	endpoint.name	measured
CCCCCCNC(=O)Nc1ccc(S(=O)(=O)Nc2ccc(CCNC[C@H](O)COc3ccc(O)cc3)cc2)cc1	activity change, positive = activation	inactive
COC(=O)c1ccc(C23CC4(C2)[C@H](CN(CC2CCCCC2)[C@@H]4c2ccccc2)C3c2ccc(C(F)(F)F)cc2)cc1 (some centres undefined)	activity change, positive = activation	inactive
COC(=O)c1ccc(C(NC(=O)OCc2ccccc2)/C(C)=C/[C@@H](C)C(=O)NCCO)cc1 (some centres undefined)	activity change, positive = activation	inactive
C/C(CCN1CCc2nc(-c3ccccc3)c(-c3ccccc3)cc2C1)=N\OC[C@@H](O)COCc1ccco1	activity change, positive = activation	-86.5% [at 11.4 µM] (inactive)

---

Assay: qHTS for Inhibitors of Plasmodium falciparum (GB4) proliferation (AID 504315);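 also: 0% = DMSO vehicle and -100% = 0.29 µM artemisinin control; nearly all actives have a fitted effect of over 50% in size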
Conditions: P. falciparum GB4 in erythrocytes, SYBR Green DNA, 72 h; series mostly up to 6.7 µM
Records with an inconclusive call do not appear. Active and inactive are the calls of the source. Calls come from the whole dose curve; as a rule, active = well fitted inhibition curve with a large enough effect; inconclusive = small, poorly fitted or top-dose-only effect, or effect the other way; inactive = flat fitted curve, though single readings scatter.
Just give me one of these, please: 1 (yes) for active, 0 (no) for inactive

compound	label
CC1(OC(=O)CCc2ccccc2)C(=O)C=C2C=C(c3ccc(C#N)cc3)N(C3CCCC3)C=C2C1=O (stereo not drawn)	0 (no)

We next turn to a different compound, shown below.
[ask] Please state the recorded outcome for this compound: `COC(=O)[C@H]1[C@H](CCc2ccccc2)NC(=O)N(Cc2ccccc2)[C@@H]1C`
[reply] 0 (no)

---

Test system: AS120
Experiment: qHTS profiling for inhibitors of Plasmodium falciparum proliferation (AID 504749);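 also: 0% = DMSO vehicle and full inhibition = artemisinin control; nearly all actives have a fitted effect of over 60% in size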
Details: P. falciparum in erythrocytes, SYBR Green DNA, 72 h; series mostly up to 28.7 µM
Records with an inconclusive call do not appear. Active and inactive are the calls of the source. Calls follow the shape of the dose curve; as a rule, active = well fitted inhibition curve with a large enough effect; inconclusive = small, poorly fitted or top-dose-only effect; inactive = flat fitted curve, though single readings scatter. Numbered stars: 1 amine (or outer) side, 2 acyl side, 3 side chain; on linkers, the order of the positions; unused ones are H or OH. Bridge positions count the residues as written; N and C are the ends. Square brackets hold non-standard residues; d marks the D form. Peptide text beside a SMILES is read from it. * marks the point of attachment. ξ: configuration not given here. ΔAla(Z-3-ureido) = NC(=O)N/C=C(\N)C(=O)O; X2 = NC1=NC(O)CC(C(N[*:1])C(=O)[*:2])N1; ξβ3hOrn = NCCCC(N)CC(=O)*; Dap = NC[CH](N)C(=O)O
endpoint.name: outcome

compound	measurement.target	measured
NCCCC(N)CC(=O)NC1CNC(=O)C(C2CC(O)N=C(N)N2)NC(=O)/C(=C/NC(N)=O)NC(=O)C(CO)NC(=O)C(CO)NC1=O (stereo not drawn) (ξβ3hOrn-[Dap]SS[ΔAla(Z-3-ureido)][X2]; lactam 1-C; configuration not given here)	AS120	inactive
CC(N)C(=O)NCC(=O)NC1CSSCC(C(=O)O)NC(=O)C(CO)NC(=O)C(C(C)O)NC(=O)C(Cc2ccccc2)NC(=O)C(C(C)O)NC(=O)C(CCCCN)NC(=O)C(Cc2c[nH]c3ccccc23)NC(=O)C(Cc2ccccc2)NC(=O)C(Cc2ccccc2)NC(=O)C(CC(N)=O)NC(=O)C(CCCCN)NC1=O (stereo not drawn)	AS120	inactive
Cn1cc(O)nc1NC(=O)Nc1cccc(Cl)c1	AS120	inactive

---

Test: qHTS assay for small molecule activators of the p53 signaling pathway (AID 651743); also: % of control where 0% means no effect
Conditions: HCT-116 p53RE-bla, beta-lactamase FRET ratio, 16 h; stronger effect = higher value
Inconclusive results are not listed.
endpoint.name: activation (%)
Reply with just the number (in %).

Answered examples (5):
molecule	activation, %
C[C@]12CC[C@@H]3c4ccc(O)cc4CC[C@H]3[C@@H]1CC[C@H]2O	23.4
O=S(=O)(O)c1cc(S(=O)(=O)O)c2c(N=Nc3ccccc3)c(O)ccc2c1	-0.0659
CCc1c(C(=O)O)c(=O)cnn1-c1ccc(Cl)cc1	1.9
CNc1nc(=O)n(C2CCCCC2)c(=O)n1C	0.353
CCCCOC(=O)/C=C\C(=O)OCCCC	5.06

activation reading for `C=CCCCCCCCCCCCC` : -3

activation reading for `CCCCOCCOCCOC(C)=O` : -0.502

activation reading for `Cc1ccc(C(C)(C)C)c(O)c1` : -4.17

activation reading for `CC1(C)C(=O)N(Cl)C(=O)N1Cl` : -0.829

activation reading for `O=C(Cl)c1cccc(C(=O)Cl)c1` : -3.51

---

Test: qHTS for Inhibitors of Ubiquitin-specific Protease USP2a Using CHOP2 as the Reporter: Cytotox Assay (AID 652170); also: nearly all actives have a fitted effect of over 70% in size; also: potency is read from the fitted curve at half-maximal effect
Conditions: HCT116 viability, CellTiter-Glo luminescence, 72 h; series mostly up to 46.1 µM
Inconclusive results are not listed. Activity calls are given as the source filed them. Calls come from the whole dose curve; as a rule, active = well fitted cell-killing curve with a large enough effect; inconclusive = small, poorly fitted or top-dose-only effect, or effect the other way; inactive = flat fitted curve, though single readings scatter.
endpoint.name: Potency

O=C(Nc1ccc(S(=O)(=O)Nc2ncc(-c3ccccc3)s2)cc1)c1ccc2ccccc2c1 inactive
Nc1cccc(S(=O)(=O)Nc2cnccc2C(=O)Nc2nc(-c3ccccc3)cs2)c1 inactive
Cc1ccc(-c2csc(NC(=O)c3ccncc3NS(=O)(=O)c3ccc(C)cc3)n2)cc1 14.8 µM (active)

---

Target: DNA polymerase kappa (Homo sapiens)
Assay: qHTS for Inhibitors of Polymerase Kappa: Confirmatory Assay for Cherry-picked Compounds (AID 720501); also: potency is read from the fitted curve at half-maximal effect
Details: purified Pol-kappa, fluorescent strand-displacement substrate
Excerpt: The processing and repair of DNA inter-strand crosslinks (ICL) in eukaryotic cells are extremely complex, potentially involving multiple DNA repair and damage tolerance pathways, including homologous recombination, nucleotide excision repair, translesion synthesis (TLS), and cell cycle checkpoints. […] A 1536-well format, fluorescence based, high-throughput screen (AID 588579) was developed in collaboration with the Oregon Health & Science University to screen for inhibitors of the Pol-kappa enzyme. […]
The other results are listed elsewhere or left out. Inconclusive results are not listed. Activity calls are given as the source filed them. Calls come from the whole dose curve; as a rule, active = well fitted inhibition curve with a large enough effect; inconclusive = small, poorly fitted or top-dose-only effect, or another doubt; inactive = no such curve, though single readings can be large or run the other way.
endpoint.name: Potency

molecule	Potency
CCOc1cccc2c1N[C@@H](c1ccc(C(=O)O)cc1)[C@H]1CC=C[C@@H]21	2.38 µM (active)
O=C(O)c1ccc(NS(=O)(=O)c2ccc3c(c2)C(=O)c2cc(S(=O)(=O)Nc4ccc(C(=O)O)cc4)ccc2-3)cc1	16.8 µM (active)
Cc1ccc2cc(/C=N/Nc3ccc(C(=O)O)cc3)c(Cl)nc2c1	26.7 µM (active)
O=C(O)C1CCN(c2ccc([N+](=O)[O-])cc2[N+](=O)[O-])CC1	42.3 µM (active)
CN(C)CCNC(=O)c1ccc(Cl)c2cc3ccccc3nc12	21.2 µM (active)

Potency reading for NC(CSC(c1ccccc1)(c1ccccc1)c1ccc(-c2ccccc2)cc1)C(=O)O (centres undefined) : 67 µM (active)

Potency reading for `CCc1nc2cccnc2n1-c1ccc(C(=O)O)cc1` : 18.9 µM (active)

Potency reading for `O=C1COc2c1ccc(O)c2O` : 6.7 µM (active)

Potency reading for `Cc1ccc(-c2nc(SCc3ccc(Br)cc3)n3[nH]c(=O)cc3n2)cc1` : 16.8 µM (active)

Potency reading for `Cc1cc(/C=C2\SC(=O)N(C)C2=O)c(C)n1-c1cccc(C(=O)O)c1` : 9.47 µM (active)

Potency reading for `COCCNC(=O)Nc1ccc2nc(-c3ccco3)c(-c3ccco3)nc2c1` : 3.77 µM (active)

---

Molecular target: Cytochrome P450 3A4 (Homo sapiens)
Test: qHTS Assay for Activators of Cytochrome P450 3A4 (AID 885); also: nearly all actives have a fitted effect of over 65% in size
Settings: recombinant CYP3A4, Luciferin-PPXE luminescence, 60 min; series mostly up to 57.1 µM
Method: NIH Molecular Libraries Screening Centers Network [MLSCN] NIH Chemical Genomics Center [NCGC] The P450 gene superfamily is involved in the metabolism and clearance of xenobiotics. […] The luciferin is then measured by luminescence after the addition of a luciferase detection reagent. […] Inhibitors and some substrates limit the production of luciferin, and decrease measured luminescence; activators increase the production of luciferin and luminescence. […]
The source made the active and inactive calls. Calls follow the shape of the dose curve; as a rule, active = well fitted activation curve with a large enough effect; inconclusive = small, poorly fitted or top-dose-only effect; inactive = no such curve, though single readings can be large or run the other way.

compound	activity change, positive = activation
COC(=O)c1ccc(C(NC(=O)OCc2ccccc2)/C(=C/[C@@H](C)C(=O)NCc2cc(C)on2)c2cccnc2)cc1 (stereo partly drawn)	inactive
CO[C@H]1COC(=O)[C@H](C)NC(=O)C/C=C\[C@@H](C)[C@@H](NS(=O)(=O)c2ccc(C)cc2)COC(=O)[C@H](OCc2ccccc2)/C=C\[C@@H]1C	-79.4% [at 11.4 µM] (inactive)
CCC1=C(OC(=O)N(CC)CC)N2C(=O)OC(=NCC3CC3)[C@]2(Cc2ccccc2)[C@H]2C1=CC[C@H]1C(=O)N(c3ccccc3)C(=O)[C@H]12	inactive

---

Target: Cytochrome P450 3A4 (Homo sapiens) (UniProt P08684)
Assay: qHTS Assay for Inhibitors and Substrates of Cytochrome P450 3A4 (AID 884); also: potency is read from the fitted curve at half-maximal effect; nearly all actives have a fitted effect of over 50% in size
Details: recombinant CYP3A4, Luciferin-PPXE luminescence; series mostly up to 57.1 µM
Experimental: NIH Molecular Libraries Screening Centers Network [MLSCN] NIH Chemical Genomics Center [NCGC] The P450 gene superfamily is involved in the metabolism and clearance of xenobiotics. […] The luciferin is then measured by luminescence after the addition of a luciferase detection reagent. […] Inhibitors and some substrates limit the production of luciferin, and decrease measured luminescence. […]
Inconclusive results are not listed. Calls of active or inactive are those of the source. Calls follow the shape of the dose curve; as a rule, active = well fitted inhibition curve with a large enough effect; inconclusive = small, poorly fitted or top-dose-only effect; inactive = no such curve, though single readings can be large or run the other way.
Just give me one of these, please: active, inactive

// known answers, use as guide
molecule	label
Cc1ccc(C(=O)[C@@H]2[C@H]3C4COC(O4)C(=O)[C@@H]3[C@H]3C=Cc4ccccc4N32)cc1 (stereo not given in full)	active
COc1cccc([C@@H]2Oc3ccc(OC)cc3/C(=N/O[C@@H](C)c3cc(-c4c(C)cc(C)cc4C)no3)[C@@H]2O)c1	active
N#Cc1ccc(C23CC4(C2)[C@H](CN(CC2CCCCC2)[C@@H]4c2ccccc2)C3c2ccccc2)cc1 (stereo not given in full)	active

[ask] Please state the recorded outcome for this molecule: `CC(=O)N1[C@H](Cc2ccccc2)C=C[C@]1(C)C(=O)NCCN1CCOCC1`
[reply] active

[ask] Please state the recorded outcome for this molecule: `CC1(C)C=Cc2c(cc3occ(-c4ccc5c(c4)OCO5)c(=O)c3c2O)O1`
[reply] active

[ask] Please state the recorded outcome for this molecule: COC(=O)NC(CC(C)=O)c1ccc2c(c1)OCO2 (stereo not given)
[reply] active

[ask] Please state the recorded outcome for this molecule: `C#CCCCO/N=C1/C[C@@H](O)[C@@H](O)[C@@H]2[C@@H]3C(=O)N(C4CCCCC4)C(=O)[C@H]3CC[C@@H]12`
[reply] active

[ask] Please state the recorded outcome for this molecule: COC(=O)c1ccc(C23CC4(C2)[C@H](CN(CC2CCCCC2)[C@@H]4c2ccccc2)C3c2ccccc2)cc1 (stereo not given in full)
[reply] active

[ask] Please state the recorded outcome for this molecule: C=CCOC(=O)C(C(C)=O)C(NC(=O)OC)c1cccs1 (stereo not given)
[reply] active

[ask] Please state the recorded outcome for this molecule: `O=C(/C=C/c1ccc2c(c1)OCO2)c1cccs1`
[reply] active

[ask] Please state the recorded outcome for this molecule: `COc1cccc([C@@H]2Oc3ccc(OC)cc3/C(=N/O[C@@H](C)CN3CCCCc4nc(C)c(C)cc43)[C@@H]2O)c1`
[reply] active

Just for reference, PubChem BioAssay (NCATS) is where these values come from.
